Just for reference, ChEMBL document CHEMBL3612049 is where these values come from.

test: Cytotoxicity against human macrophages after 24 hrs by MTT assay; type: cell-based, Macrophage
# maps each entry to its CC50 at 24 h
Property measured: CC50 at 24 h (µM)

> print(dat)
                                     smiles  unit.symbol  experimental.value
1  Cc1ncc([N+](=O)[O-])n1CCOC(=O)c1ccccc1OCc1ccc(F)c(F)c1           µM                 256
2  Cc1ncc([N+](=O)[O-])n1CCOC(=O)c1ccccc1OCc1cccc(Cl)c1           µM                 188
3  Cc1ncc([N+](=O)[O-])n1CCOC(=O)c1ccccc1OCc1cc(F)c(F)c(F)c1           µM                 267
4  Cc1ccc(COc2ccccc2C(=O)OCCn2c([N+](=O)[O-])cnc2C)cc1           µM                 140
